// data source = patent US20250154145A1

Test system: neutrophils
assay.overview: Neutrophil calcium flux assay (5-OXO-ETE-stimulated, Indo-1 fluorescence)
Format: cell-based
run.parameters: Neutrophil, 5-OXO-ETE-stimulated calcium flux
quantity.measured: IC50

As a guide, the following entries are already answered.
> print(dat)
                                   compound    test.result
1  C[C@H](CC(=O)O)CC(=O)c1c(CCCCC#Cc2cccnc2)n(C)c2ccc(Cl)cc12       < 100 nM
2  CC(CC(=O)O)CC(=O)c1c(CCOCCNc2ccccc2)n(C)c2ncc(C#N)cc12 (stereo not drawn)  100 to 300 nM
3  CC(CC(=O)O)CC(=O)c1c(CCCCCCc2cccc(Cl)c2)n(C[C@H](O)CO)c2ncc(C#N)cc12 (stereo partly drawn)       > 300 nM
4  C[C@H](CC(=O)O)CC(=O)c1c(CCCCC#Cc2ccccc2)n(C)c2ccc(Cl)cc12       < 100 nM
5  C[C@H](CC(=O)O)CC(=O)c1c(CCCCOCc2cccc(C#N)c2)n(C)c2cnccc12       < 100 nM

Okay, here is my list. What is IC50 for each of these?
1. C[C@H](CC(=O)O)CC(=O)c1c(CCCCCC(F)c2cccc(Cl)c2)n(C)c2ccc(Cl)cc12 (stereo partly drawn)
2. C[C@@H](CC(=O)O)CC(=O)c1c(CCCCOCc2cc(Cl)cc(Cl)c2)n(C)c2ncc(C#N)cc12
3. C[C@H](CC(=O)O)CC(=O)c1c(CCCCCOCC#CC2CC(F)(F)C2)n(C)c2ccc(Cl)cc12

< 100 nM
100 to 300 nM
< 100 nM

* * *

System: neutrophils
assay.overview: Neutrophil calcium flux assay (5-OXO-ETE-stimulated, Indo-1 fluorescence)
Type: cell-based
run.parameters: Neutrophil, 5-OXO-ETE-stimulated calcium flux
Provide the recorded IC50 for the entries that follow.

As a guide, the following entries are already answered.
> print(dat)
                                   compound  tested.target    test.result
1  CC(CC(=O)O)CC(=O)c1c(CCOCCNc2cccnc2)n(C)c2ncc(Cl)cc12 (stereo not drawn) [Compound I-139]    neutrophils       > 300 nM
2  C[C@H](CC(=O)O)CC(=O)c1c(CCCCCN(C)c2ncccn2)n(C)c2ccc(Cl)cc12 [Compound I-124]    neutrophils  100 to 300 nM
3  C[C@H](CC(=O)O)CC(=O)c1c(CCCCOCc2ccc(F)cc2)n(C)c2ncc(C#N)cc12 [Compound I-249]    neutrophils       < 100 nM
4  C[C@H](CC(=O)O)CC(=O)c1c(CCCCOCc2cccc(C#N)c2)n(C)c2ncc(F)cc12 [Compound I-416]    neutrophils  100 to 300 nM

Okay, here is my list. What is IC50 for each of these?
1. C[C@H](CC(=O)O)CC(=O)c1c(CCCCCCc2cnccn2)n(C)c2ccc(Cl)cc12 [Compound I-81]
2. CC(CC(=O)O)CC(=O)c1c(CCCCOCc2cccc(Cl)c2)n(C)c2ncc(CN(C)C)cc12 (stereo not drawn) [Compound I-375]
3. CC(CC(=O)O)CC(=O)c1c(CCCCOCc2cncnc2)n(C)c2ccc(C#N)cc12 (stereo not drawn) [Compound I-393]
4. C[C@H](CC(=O)O)CC(=O)c1c(CCCCCCc2cccc(F)c2)n(C)c2ccc(Cl)cc12 [Compound I-9]
5. Cn1c(CCCCOCc2ccccc2)c(C(=O)N2CC[C@H](C(=O)O)C2)c2cc(C#N)cnc21 [Compound I-178]
6. CC(CC(=O)O)CC(=O)c1c(CCCCOCc2cccc(F)c2)n(C)c2ncc(C#N)cc12 (stereo not drawn) [Compound I-231]
7. C[C@H](CC(=O)O)CC(=O)c1c(CCCCCC(O)c2cccc(Cl)c2)n(C)c2ccc(Cl)cc12 (stereo partly drawn) [Compound I-44]
8. C[C@H](CC(=O)O)CC(=O)c1c(CCCCOCc2cccc(C#N)c2)n(C)c2ccncc12 [Compound I-396]

1. 100 to 300 nM
2. > 300 nM
3. > 300 nM
4. < 100 nM
5. > 300 nM
6. < 100 nM
7. < 100 nM
8. < 100 nM
